- Test system: Hepatitis C virus
- run description: Antiviral activity against Hepatitis C virus genotype 1a H77 infected in human Huh7 cells assessed as decrease in subgenomic RNA level after 72 hrs by RT-PCR analysis
- Assay type: functional, cell-based, Hepacivirus hominis
- run parameters: genotype 1a H77, Huh-7, 72 h
quantity: pEC50
Just so you know, pEC50 here is -log10 of the concentration in molar units; reply with that number alone.

Solved cases below.
compound	pEC50
C/C=C/C[C@@H](C)[C@@H](O)[C@H]1C(=O)N[C@@H](CC)C(=O)N(C)CC(=O)N(C)[C@@H](CC(C)C)C(=O)N[C@@H](C(C)C)C(=O)N(C)[C@@H](CC(C)C)C(=O)N[C@@H](C)C(=O)N[C@H](C)C(=O)N(C)[C@@H](CC(C)C)C(=O)N(C)[C@@H](CC(C)C)C(=O)N(C)[C@@H](C(C)C)C(=O)N1C	6.70
CC[C@H]1C[C@H](C)[C@@]2(NC1=O)O[C@@H](C[C@H](O)[C@@H](C)CC/C=C/C=C(\C)[C@@H]1C/C=C/C=C/[C@H](O)[C@H](C)[C@@H](O)[C@@H](CCC(C)=O)C(=O)N[C@@H](C(C)C)C(=O)N[C@@H](Cc3cccc(O)c3)C(=O)N3CCCC(N3)C(=O)O1)[C@H](C)[C@H](O)[C@@H]2C (some centres undefined)	6.52
CON(C)C(=O)/C=C/C=C(\C)[C@@H]1C/C=C/C=C/[C@H](O)[C@H](C)[C@@H](O)[C@@H](CCC(C)=O)C(=O)N[C@@H](C(C)C)C(=O)N[C@@H](Cc2cccc(O)c2)C(=O)N2CCCC(N2)C(=O)O1 (some centres undefined)	6.81

Now let's try a different one.
Please give the measured pEC50 for this compound: CC(=O)CC[C@H]1C(=O)N[C@@H](C(C)C)C(=O)N[C@@H](Cc2cccc(O)c2)C(=O)N2CCCC(N2)C(=O)O[C@H](/C(C)=C/C=C/C(=O)N2CCCCO2)C/C=C/C=C/[C@H](O)[C@H](C)[C@H]1O (some centres undefined)
7.20
